System: Aspergillus flavus
Assay: Compound was tested in vitro for antifungal activity against Aspergillus flavus.
Assay type: functional, asperigillus
Let's look at some compounds and their measured log10 of MIC.
QUANTITY: log10 of MIC (log10 of the value in µg/mL)

COMPOUND	REPORTED_MEASUREMENT
c1ccc(CN2CCc3ccccc3C2Cn2ccnc2)cc1 (stereo unspecified)	1.40
Fc1ccc(CN2CCc3ccccc3C2Cn2ccnc2)c(F)c1 (stereo unspecified)	-0.11
Clc1ccc(CN2CCc3ccccc3C2Cn2ccnc2)c(Cl)c1 (stereo unspecified)	-0.11
Clc1ccc(CN2CCc3ccccc3C2Cn2cncn2)cc1 (stereo unspecified)	1.40
C[C@@H]1[C@H](O)[C@@H](C)/C=C/C=C/C=C/C=C/C=C/C=C/C=C/[C@H](O[C@@H]2O[C@H](C)[C@@H](O)[C@H](N)[C@@H]2O)C[C@@H]2O[C@](O)(C[C@@H](O)C[C@@H](O)[C@H](O)CC[C@@H](O)C[C@@H](O)CC(=O)O[C@H]1C)C[C@H](O)[C@H]2C(=O)O	1.10
Fc1ccc(CN2CCc3ccccc3C2Cn2ccnc2)cc1 (stereo unspecified)	0.80
Clc1ccc(CN2CCc3ccccc3C2Cn2ccnc2)cc1 (stereo unspecified)	-0.72

// data source = ChEMBL document CHEMBL1129093
